From: paper PMC12431657

Recorded OC43 Inhibition rate values for a group of compounds are listed next.
Tested on: HCoV-OC43
Parameters: species or system RD; HTS, protection from HCoV-OC43 induced cell death, luminescent cell viability (CellCounting-Lite 2.0), inhibition rate
Conditions: 24 h post infection, 1 h compound pre-incubation, 10 µM, inhibitor, OC43 Inhibition rate, 24 h
The whole screen tested about 3,300 compounds, of which about 60 (2%) showed an effect of 50% or more. This excerpt belongs to a sample that is enriched for strong results.
readoutLabel: OC43 Inhibition rate (%)

compound="COc1ccc(/C=C/C(=O)O)cc1 [4-Methoxycinnamic acid]" targetofassay=HCoV-OC43 readoutlabel="OC43 Inhibition rate" measurementunits=% reading=-0.5
compound="C[C@@H]1CC[C@@]2(OC1)O[C@H]1C[C@H]3[C@@H]4CC=C5C[C@@H](O)C[C@@H](O[C@@H]6O[C@H](C)[C@H](O)[C@H](O[C@@H]7OC[C@@H](O)[C@H](O)[C@H]7O)[C@H]6O[C@@H]6O[C@@H](C)[C@H](O)[C@@H](O)[C@H]6O)[C@]5(C)[C@H]4CC[C@]3(C)[C@H]1[C@@H]2C [Ophiopogonin D]" targetofassay=HCoV-OC43 readoutlabel="OC43 Inhibition rate" measurementunits=% reading=1.6
compound="COc1cc([C@H]2Oc3cc([C@H]4Oc5cc(O)cc(O)c5C(=O)[C@@H]4O)ccc3O[C@@H]2CO)ccc1O [Silibinin]" targetofassay=HCoV-OC43 readoutlabel="OC43 Inhibition rate" measurementunits=% reading=1.4
